Hey, just so you know, these numbers are from patent US8039668B2.

This listing pairs compounds with measured pIC50.
experimental-system: BCL-XL (Homo sapiens)
Sequence (Q07817 1-209 limits assumed): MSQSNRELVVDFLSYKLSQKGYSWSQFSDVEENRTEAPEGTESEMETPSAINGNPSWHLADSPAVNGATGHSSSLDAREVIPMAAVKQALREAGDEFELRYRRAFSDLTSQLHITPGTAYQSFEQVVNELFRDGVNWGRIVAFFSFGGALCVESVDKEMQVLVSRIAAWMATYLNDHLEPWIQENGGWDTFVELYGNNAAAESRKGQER
protocol: Competitive fluorescence polarization assay (FPA), Bak BH3 peptide
Type: binding
Design: 100 nM GST-BCL-XL ΔTM protein
assay-conditions: read-out: IC50 FPA Bcl-XL
Scale explanation: pIC50 corresponds to minus log10 of a concentration expressed in moles per litre.

# compound, experimental-system, pIC50
measured = [
    ("Cc1cc2c(CCc3ccccc3)c(O)c(O)cc2c(O)c1-c1c(C)cc2c(CCc3ccccc3)c(O)c(O)cc2c1O [Compound 12e]", "BCL-XL (Homo sapiens)", 5.46),
    ("Cc1cc2c(C(=O)NC3Cc4ccccc4C3)c(O)c(O)cc2c(O)c1-c1c(C)cc2c(C(=O)NC3Cc4ccccc4C3)c(O)c(O)cc2c1O", "BCL-XL (Homo sapiens)", 6.07),
    ("CCc1ccc(CCNC(=O)c2c(O)c(O)cc3c(O)c(-c4c(C)cc5c(C(=O)NCCc6ccc(CC)cc6)c(O)c(O)cc5c4O)c(C)cc23)cc1", "BCL-XL (Homo sapiens)", 6.03),
    ("Cc1cc2c(C(=O)NCC3CCCCC3)c(O)c(O)cc2c(O)c1-c1c(C)cc2c(C(=O)NCC3CCCCC3)c(O)c(O)cc2c1O", "BCL-XL (Homo sapiens)", 5.96),
    ("Cc1cc(C)c(CNC(=O)c2c(O)c(O)cc3c(O)c(-c4c(C)cc5c(C(=O)NCc6c(C)cc(C)cc6C)c(O)c(O)cc5c4O)c(C)cc23)c(C)c1", "BCL-XL (Homo sapiens)", 6.10),
    ("Cc1cc2c(C(=O)NCCc3ccccc3)c(O)c(O)cc2c(O)c1-c1c(C)cc2c(C(=O)NCCc3ccccc3)c(O)c(O)cc2c1O", "BCL-XL (Homo sapiens)", 6.10),
]

In: Which pIC50 value belongs to Cc1cc2c(C(=O)NC(C)c3ccc(Cl)cc3)c(O)c(O)cc2c(O)c1-c1c(C)cc2c(C(=O)NC(C)c3ccc(Cl)cc3)c(O)c(O)cc2c1O (centres unmarked) ?
Out: 6.57

In: Which pIC50 value belongs to Cc1cc2c(C(=O)NCCc3cccc(Cl)c3)c(O)c(O)cc2c(O)c1-c1c(C)cc2c(C(=O)NCCc3cccc(Cl)c3)c(O)c(O)cc2c1O ?
Out: 5.20
